Experiment: soluble on expression in E. coli; label from the status in PepcDB or PDB records
readoutName: soluble on expression in E. coli

The following sequences have reported results that may help.
Per the record, MSLDNESLLAILNNWSATNYAKGNYILREISSKFLAKISIDSNDYLLDAGCGDGSFTQMLANLVPDGYVLGLDRSKTMIDYANKHCRSINVRFDIGDIQEPIIYGPFDNILSFWCLHWTDLEKSLSNLYHVLKPGGKICAIFSSGKQSTLFEVLNSLQFQNLYPDVAKNVVQSKMMRENYSVQCRRALDNLPFKSISFVVEHCQVELPDLGLFENFIHGAPLFKDLPGKMYQDIVNGMVQFFDEYCKKKYGGKWVYETTPYFLTITREGHHHHHH has soluble on expression in E. coli of soluble

For record MGSDKIHHHHHHMQGKKFISPGAWFSMNYPSDWNEFEDGEGSFLFYNPDVWTGNFRISAFKGNASYGKDAIRQELKENDSASLVKIGTWDCAYSKEMFQEEGTYYTSHLWITGTGNIAFECSFTVPKGGSAKEAEEVIATLEARKEGEKYPAELIPVRLSEIYQINEGYEWVVSTVKQELKKDFQGVEEDLEKIQQVIDSGKISPKKKDEWLAIGITVCAILTNEVEGMEWKTLIDGNREVPVLEYQGRTIDPMKIAWSKVKAGQPCNIAEAYQSAIDHH the listed soluble on expression in E. coli is not soluble

For record MGSDKIHHHHHHMSLSRIHGDDDAFGARLDFAVNVAEAQPPTWLIQRLQSAVTDLAAYPHSSDLAAVTAMIARYHGVSEDHVLVLSGVSEGFAMLPQLKPENAVIIHPGFSEPDIVLTDAQIPVHRCILAPPFELSFENIPANADLVVIGNPTNPTGVVHSKELLAQLCAPGRTVVIDEAFLDIVGEQYSMIDQLDAVEGELIIFRSLTKTWSIAGLRVGYAIARPETLARLSAYRRHWPMGTLQLRAIEAVFDTGIMQLPERRAEMIAQRTEMIEMLTNSGFRCVSSSQAPYILVRPPSTQPEELRMALKAQGIAVRRCDTFPGLEFSYWRLAVRPRDQVQRLLTAIDNIIGAKK the listed soluble on expression in E. coli is not soluble

soluble on expression in E. coli reading for MAPKTIFITGANRGIGLGLVRELLKVPGVEALVAGARNIDGAKELQSLAKADARLHLIAVDVSNDGSLENSVKSVSGIVGDRGLNLLINNAGLIESYGTTSAPNRASVLHCIDVNAVSALLASQHFLPLLQKAASHVSGDSLTPDRAAIVNIGSDCASQALNLRGSGPSNSLLAYKMSKVAMLSFSRSMAADFKRLEIPVLITNIHPGWVQTDMGGSNAEISVDESVTKIVASIAKLNGGHQGGLFNRELEEMPL : not soluble

GET /value?item= MTARDDETIAFYSGHATAYTSRGQAPDRPHLETFLARLRAGAKILELGCGGGQDSEYMLSAGFDVHPTDGTPDIAKAAQARLGIPVRTLLFENIEDAALYDAVWANACLLHVPRLALPGIIGRIHTALKPGGVFYASFKAGEVEGRDTFGRYYNYPSKAWLEETYGQFAWTEVEIEARQGSGYDKLPTDWLHVTATKA &field=soluble on expression in E. coli returns soluble

Turning to the following sequence.
For record MSLSSLDAVLSQDLIVADGPAVEVGDSLEVAYTGWLFQNHVLGQVFDSTANKDKLLRLKLGSGKVIKGWEDGMLGMKKGGKRLLIVPPACAVGSEGVIGWTQATDSILVFEVEVRRVKFAREGHHHHHH the listed soluble on expression in E. coli is not soluble
